Item-by-item account of composite z-score
# method-summary: binders of probe aHhip on microarray, primary screen, stem cell growth factor project, biochemical, small-molecule microarray, fluorescence 635/667 (AID 1087);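 note: score merges spot fluorescence at 667nm with spot signal to noise ratio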
# measurement-conditions: higher = more signal
Please state the value as a number alone, without comment.

compound	composite z-score
COc1ccc(C#C[C@@H]2C=C[C@H](OC(C)=O)[C@@H](COC(C)=O)O2)cc1	-0.191
CC(CCN1CCCCc2nc(C)c(C)cc21)=NOC[C@@H](O)COCc1ccco1	0.259
CCN1C(=O)[C@H]2[C@H]3[C@H](O)[C@H](O)CC(=NOCC(C)C)[C@@H]3CC[C@H]2C1=O	0.465

Documented composite z-score of `COC(=O)[C@H]1O[C@@H](c2c(OC)c(OC)c(C)c(OC)c2OC)[C@H](C)[C@@H](O)[C@H]1C` : -0.0965

Documented composite z-score of `CCN1C(=O)[C@@H]2[C@H]3C(=CC[C@@H]2C1=O)C1(OCCCO1)[C@H]1O[C@H]1[C@H]3O` : -0.236

Documented composite z-score of CCOC(=O)[C@H](CC(C)C)NC(=O)CCC1CC(OC(=O)NCCc2ccc(F)cc2)CC2(CCCC(COC(=O)NCCOc3ccccc3)O2)O1 (stereo partly specified) : -0.374

Documented composite z-score of `CCOC(=O)CCN1C(=O)[C@H]2[C@H]3[C@H](O)[C@H](O)CC(=NOCc4ccccc4)[C@H]3CC[C@H]2C1=O` : -0.236

Documented composite z-score of `CO[C@@H]1COC(=O)[C@@H]2CCCN2C(=O)[C@@H](C)COC(=O)CC=C[C@H]1C` : 0.607
